Assayed System: T1, human c-Met/Fc fusion protein (R&D Systems) (human, UniProt P08581 25-932)
T1 construct: Bought reagent; treated here as the same reagent; also called c-Met-Fc (#358-MT/CF, R&D Systems); human c-Met/Fc protein; not shown: Fc part of the bought fusion protein
T1 sequence (P08581 25-932 limits assumed): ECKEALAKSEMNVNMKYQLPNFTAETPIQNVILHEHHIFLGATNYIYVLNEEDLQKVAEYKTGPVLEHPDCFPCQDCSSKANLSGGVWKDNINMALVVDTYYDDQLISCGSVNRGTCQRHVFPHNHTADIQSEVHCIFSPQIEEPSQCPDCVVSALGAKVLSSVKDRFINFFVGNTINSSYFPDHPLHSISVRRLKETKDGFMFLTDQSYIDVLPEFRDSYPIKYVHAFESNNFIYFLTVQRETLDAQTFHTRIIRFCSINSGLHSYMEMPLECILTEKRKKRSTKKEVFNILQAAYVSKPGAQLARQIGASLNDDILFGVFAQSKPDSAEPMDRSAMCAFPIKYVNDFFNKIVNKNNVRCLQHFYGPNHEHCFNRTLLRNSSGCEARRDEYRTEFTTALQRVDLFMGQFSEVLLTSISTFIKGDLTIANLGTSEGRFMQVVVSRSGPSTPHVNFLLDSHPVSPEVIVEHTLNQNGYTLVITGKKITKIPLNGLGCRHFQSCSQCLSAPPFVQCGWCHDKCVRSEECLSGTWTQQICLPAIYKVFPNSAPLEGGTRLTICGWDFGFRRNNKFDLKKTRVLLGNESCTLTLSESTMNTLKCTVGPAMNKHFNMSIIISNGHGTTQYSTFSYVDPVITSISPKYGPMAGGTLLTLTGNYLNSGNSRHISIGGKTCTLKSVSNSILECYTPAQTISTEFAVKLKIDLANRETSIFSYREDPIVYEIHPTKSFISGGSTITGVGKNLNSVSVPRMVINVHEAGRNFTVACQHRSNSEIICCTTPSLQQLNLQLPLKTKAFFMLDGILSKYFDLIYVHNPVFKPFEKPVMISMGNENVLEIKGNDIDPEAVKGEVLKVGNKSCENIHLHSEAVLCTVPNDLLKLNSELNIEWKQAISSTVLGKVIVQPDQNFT
Assay Remarks: SPR, Biacore T100; antibody captured by human Fab binder on CM5 chip, c-Met-Fc injected
A collection of binders and their measured Kd

Binder	Kd [pM]
PEG-introduced antibody L3-1Y/IgG2 with 30 kDa polyethyleneglycol (antibody, V domains shown, see heavy chain: the PEG may stand at the N-terminus of a light chain instead; 30 kDa methoxypolyethyleneglycol at the N-terminus of the antibody (N-terminus of a heavy chain or of a light chain; which one is not resolved); mono-PEG per paragraph 213, also called 30kPEG Ab; mono-PEG antibody (30 kDa)) VH: EVQLVESGGGLVQPGGSLRLSCAASGFTFTDYYMSWVRQAPGKGLEWLGFIRNKANGYTTEYSASVKGRFTISRDNSKNTLYLQMNSLRAEDTAVYYCARDNWFAYWGQGTLVTVSS VL: DIQMTQSPSSLSASVGDRVTITCKSSQSLLASGNQNNYLAWYQQKPGKAPKMLIIWASTRVSGVPSRFSGSGSGTDFTLTISSLQPEDFATYYCQQSYSRPYTFGQGTKVEIKR	61.9
PEG-introduced antibody L3-1Y/IgG2 with 10 kDa polyethyleneglycol (antibody, V domains shown, see heavy chain: the PEG may stand at the N-terminus of a light chain instead; 10 kDa methoxypolyethyleneglycol at the N-terminus of the antibody (N-terminus of a heavy chain or of a light chain; which one is not resolved); mono-PEG per paragraph 213, also called 10kPEG Ab; mono-PEG antibody (10 kDa)) VH: EVQLVESGGGLVQPGGSLRLSCAASGFTFTDYYMSWVRQAPGKGLEWLGFIRNKANGYTTEYSASVKGRFTISRDNSKNTLYLQMNSLRAEDTAVYYCARDNWFAYWGQGTLVTVSS VL: DIQMTQSPSSLSASVGDRVTITCKSSQSLLASGNQNNYLAWYQQKPGKAPKMLIIWASTRVSGVPSRFSGSGSGTDFTLTISSLQPEDFATYYCQQSYSRPYTFGQGTKVEIKR	86
PEG-introduced antibody L3-1Y/IgG2 with 20 kDa polyethyleneglycol (antibody, V domains shown, see heavy chain: the PEG may stand at the N-terminus of a light chain instead; 20 kDa methoxypolyethyleneglycol at the N-terminus of the antibody (N-terminus of a heavy chain or of a light chain; which one is not resolved); mono-PEG per paragraph 213, also called 20kPEG Ab; mono-PEG antibody (20 kDa)) VH: EVQLVESGGGLVQPGGSLRLSCAASGFTFTDYYMSWVRQAPGKGLEWLGFIRNKANGYTTEYSASVKGRFTISRDNSKNTLYLQMNSLRAEDTAVYYCARDNWFAYWGQGTLVTVSS VL: DIQMTQSPSSLSASVGDRVTITCKSSQSLLASGNQNNYLAWYQQKPGKAPKMLIIWASTRVSGVPSRFSGSGSGTDFTLTISSLQPEDFATYYCQQSYSRPYTFGQGTKVEIKR	72.9
anti-c-Met antibody L3-1Y-IgG2 (huAbF46-H4-A1 (IgG2 Fc)) (antibody, V domains shown, also called antibody with no PEG) VH: EVQLVESGGGLVQPGGSLRLSCAASGFTFTDYYMSWVRQAPGKGLEWLGFIRNKANGYTTEYSASVKGRFTISRDNSKNTLYLQMNSLRAEDTAVYYCARDNWFAYWGQGTLVTVSS VL: DIQMTQSPSSLSASVGDRVTITCKSSQSLLASGNQNNYLAWYQQKPGKAPKMLIIWASTRVSGVPSRFSGSGSGTDFTLTISSLQPEDFATYYCQQSYSRPYTFGQGTKVEIKR	82.3
